FYI, the data here is from paper PMC10608985.

Entries and their Log k Chol
test: HPLC lipophilicity on cholesterol (Chol) stationary phase; assay type: physicochemical; conditions: Table S3; MeOH 0.40 v/v in mobile phase, pH 7.4
Give your answer as a number; write no unit.

Study these solved cases before continuing.
O=C(COc1ccccc1)NNC(=S)Nc1ccc([N+](=O)[O-])cc1 [Compound 16]	0.843
O=C(COc1ccccc1)NNC(=S)Nc1ccc(F)cc1 [Compound 9]	0.696

Given the compound CSc1ccc(NC(=S)NNC(=O)COc2ccccc2)cc1 [Compound 17] , what is its reported Log k Chol?
1.108

Please look up its Log k Chol: O=C(COc1ccccc1)NNC(=S)Nc1ccccc1 [Compound 1]
0.620

Entry O=C(COc1ccccc1)NNC(=S)Nc1ccc(Br)cc1 [Compound 11] has what Log k Chol?
1.158

Which Log k Chol reading was recorded for the compound O=C(COc1ccccc1)NNC(=S)Nc1ccccc1F [Compound 2] ?
0.441

====

Assay: HPLC lipophilicity on cholesterol (Chol) stationary phase
Type: physicochemical
Details: Table S3; MeOH 0.35 v/v in mobile phase, pH 7.4
Description: For the evaluation of the compounds the following stationary phases were used: C-18; biomimetic, IAM; cholesterol (Chol); immobilized proteins HSA and AGP. […] HPLC measurements were performed using a liquid chromatograph Knauer (Knauer, Berlin, Germany) with a dual pump, a 20 µL simple injection valve, and a UV–visible detector. The compounds were detected under UV light at 280 nm at room temperature. […]
The reader will find reported Log k Chol values listed item by item below.
Please reply with the number alone, leaving off any unit.

Here are 5 compounds together with their reported answers.
O=C(COc1ccccc1)NNC(=S)Nc1cccc2ccccc12	1.296
O=C(COc1ccccc1)NNC(=S)Nc1ccc(F)cc1	0.970
O=C(COc1ccccc1)NNC(=S)Nc1ccc(Cl)cc1	1.331
O=C(COc1ccccc1)NNC(=S)Nc1ccccc1I	0.974
O=C(COc1ccccc1)NNC(=S)Nc1cccc(F)c1	0.957

Can you look up the measured Log k Chol of `O=C(COc1ccccc1)NNC(=S)Nc1ccccc1F` for me?
0.656

Dear colleague, I am looking for the recorded Log k Chol of the following compound: `O=C(COc1ccccc1)NNC(=S)Nc1cccc(Cl)c1`
1.270

Would you kindly share the measured Log k Chol for `O=C(COc1ccccc1)NNC(=S)Nc1ccc([N+](=O)[O-])cc1` ?
1.082

====

experiment: HPLC lipophilicity on cholesterol (Chol) stationary phase; assay type: physicochemical; conditions: slope of Soczewiński–Wachtmeister equation; MeOH/20 mM acetate buffer, pH 7.4
# -S Chol values compiled below
In your answer, state the number alone without any accompanying words.

O=C(COc1ccccc1)NNC(=S)Nc1ccccc1Cl	4.1573
O=C(COc1ccccc1)NNC(=S)Nc1ccc(Br)cc1	5.0251
O=C(COc1ccccc1)NNC(=S)Nc1cc(Cl)ccc1Cl	5.1337

# lookup: -S Chol of `O=C(COc1ccccc1)NNC(=S)Nc1ccc(I)cc1`
5.0829

Return reported -S Chol; argument: `O=C(COc1ccccc1)NNC(=S)Nc1ccc(Cl)c(Cl)c1`
6.2128

====

test system: α1-acid glycoprotein (AGP); experiment: HPLC on immobilized AGP column, affinity and % plasma–protein binding; format: in vitro ADME, human; settings: retention on AGP column; 50 mM ammonium acetate pH 7.4 / propan-2-ol 85/15 (v/v)
Catalogue of molecules with associated log k AGP

State its log k AGP on α1-acid glycoprotein (AGP): `O=C(COc1ccccc1)NNC(=S)Nc1ccccc1I`
0.5588

// fetch α1-acid glycoprotein (AGP) log k AGP for `O=C(COc1ccccc1)NNC(=S)Nc1ccc(Cl)cc1Cl`
0.4665

# get_value(readout= log k AGP, system= α1-acid glycoprotein (AGP)) for `O=C(COc1ccccc1)NNC(=S)Nc1cccc(I)c1`
0.7664

For α1-acid glycoprotein (AGP), provide log k AGP of `O=C(COc1ccccc1)NNC(=S)Nc1ccc(Br)cc1` please.
0.518

Under α1-acid glycoprotein (AGP): log k AGP value of `O=C(COc1ccccc1)NNC(=S)Nc1cc(Cl)ccc1Cl` ?
0.7971

What reported log k AGP corresponds to `O=C(COc1ccccc1)NNC(=S)Nc1ccccc1F` on α1-acid glycoprotein (AGP)?
0.2531

====

assay: HPLC lipophilicity on cholesterol (Chol) stationary phase; format: physicochemical; settings: Table S3; MeOH 0.45 v/v in mobile phase, pH 7.4
assay readout: Log k Chol
A bare number is all that is needed in reply.

In the examples that follow, each entry is paired with its recorded Log k Chol.
O=C(COc1ccccc1)NNC(=S)Nc1ccc(F)cc1 [Compound 9]	0.523
O=C(COc1ccccc1)NNC(=S)Nc1cccc(Cl)c1 [Compound 6]	0.766
O=C(COc1ccccc1)NNC(=S)Nc1ccc(Br)cc1 [Compound 11]	0.871
O=C(COc1ccccc1)NNC(=S)Nc1cccc(F)c1 [Compound 5]	0.487
O=C(COc1ccccc1)NNC(=S)Nc1cccc(I)c1 [Compound 8]	1.026
O=C(COc1ccccc1)NNC(=S)Nc1ccc(Cl)cc1Cl [Compound 13]	0.978
O=C(COc1ccccc1)NNC(=S)Nc1cc(Cl)ccc1Cl [Compound 14]	1.095
O=C(COc1ccccc1)NNC(=S)Nc1ccccc1 [Compound 1]	0.440

// returns reported Log k Chol for input O=C(COc1ccccc1)NNC(=S)Nc1cccc(Br)c1 [Compound 7]
0.913

What value of measured Log k Chol is listed for O=C(COc1ccccc1)NNC(=S)Nc1ccccc1Cl [Compound 3] ?
0.461

Entry O=C(COc1ccccc1)NNC(=S)Nc1ccccc1I [Compound 4] : reported Log k Chol = ?
0.519

Entry O=C(COc1ccccc1)NNC(=S)Nc1ccc(I)cc1 [Compound 12] : reported Log k Chol = ?
1.049

====

experiment: HPLC lipophilicity on cholesterol (Chol) stationary phase; assay type: physicochemical; settings: intercept, linear extrapolation to water; MeOH/20 mM acetate buffer, pH 7.4
Measured log kw Chol values are reported for all entries that follow.
Response field accepts a number only; no unit should be typed.

O=C(COc1ccccc1)NNC(=S)Nc1ccc(I)cc1 [Compound 12]	3.3300
CSc1ccc(NC(=S)NNC(=O)COc2ccccc2)cc1 [Compound 17]	3.1664
O=C(COc1ccccc1)NNC(=S)Nc1ccccc1 [Compound 1]	2.2209
O=C(COc1ccccc1)NNC(=S)Nc1cccc(F)c1 [Compound 5]	2.4598
O=C(COc1ccccc1)NNC(=S)Nc1cccc(Cl)c1 [Compound 6]	2.9670
O=C(COc1ccccc1)NNC(=S)Nc1ccccc1F [Compound 2]	1.9241
O=C(COc1ccccc1)NNC(=S)Nc1cccc(Br)c1 [Compound 7]	3.4508
O=C(COc1ccccc1)NNC(=S)Nc1ccc(Cl)cc1 [Compound 10]	2.9842

If you can, please state the reported log kw Chol value of O=C(COc1ccccc1)NNC(=S)Nc1ccc(Br)cc1 [Compound 11] .
3.1674

Would you kindly share the measured log kw Chol for O=C(COc1ccccc1)NNC(=S)Nc1cccc2ccccc12 [Compound 18] ?
3.0227

Which measured log kw Chol value corresponds to O=C(COc1ccccc1)NNC(=S)Nc1ccccc1I [Compound 4] ?
2.3754

// lookup log kw Chol for O=C(COc1ccccc1)NNC(=S)Nc1ccccc1Cl [Compound 3]
2.3437

Which value of log kw Chol has been reported for O=C(COc1ccccc1)NNC(=S)Nc1ccc(Cl)c(Cl)c1 [Compound 15] in the records?
4.2283

Endpoint output: log kw Chol of O=C(COc1ccccc1)NNC(=S)Nc1cccc(I)c1 [Compound 8] . Value?
3.7019

Name the reported log kw Chol value associated with the molecule O=C(COc1ccccc1)NNC(=S)Nc1ccc(F)cc1 [Compound 9]
2.4029

Fill in the blank: the reported log kw Chol of O=C(COc1ccccc1)NNC(=S)Nc1cc(Cl)ccc1Cl [Compound 14] is ____.
3.4243

Dear colleague, I am looking for the recorded log kw Chol of the following molecule: O=C(COc1ccccc1)NNC(=S)Nc1ccc([N+](=O)[O-])cc1 [Compound 16]
2.8538

Requested field: log kw Chol. Item: O=C(COc1ccccc1)NNC(=S)Nc1ccc(Cl)cc1Cl [Compound 13]
3.4517

====

assay: HPLC lipophilicity on cholesterol (Chol) stationary phase; type: physicochemical; details: Table S3; MeOH 0.70 v/v in mobile phase, pH 7.4
Assign class by Log k Chol: not lower than -0.3 means true (1); lower than -0.3 means false (0).

O=C(COc1ccccc1)NNC(=S)Nc1ccc(I)cc1 [Compound 12]	true (1)
O=C(COc1ccccc1)NNC(=S)Nc1cc(Cl)ccc1Cl [Compound 14]	true (1)

Entry O=C(COc1ccccc1)NNC(=S)Nc1ccc(Cl)cc1 [Compound 10] : is its Log k Chol no less than -0.3?
false (0)

Textbook exercise: given the entry O=C(COc1ccccc1)NNC(=S)Nc1ccc(Cl)cc1Cl [Compound 13] , state whether its Log k Chol is greater than or equal to -0.3.
false (0)

Textbook exercise: given the entry O=C(COc1ccccc1)NNC(=S)Nc1cccc(Br)c1 [Compound 7] , state whether its Log k Chol is greater than or equal to -0.3.
false (0)
